- System: NCI-H23
- Test protocol: NCI tumour cell line growth inhibition, 48 h
Active and inactive are the calls of the source. No stated cut-off is given here; in the data, active = GI50 up to about 1.1 µM and inactive = higher.
The following compounds are listed with their measured GI50 values.

Task: // query GI50 value for entry c1ccc2c(c1)nc1n2CSCC1
Result: > 100 µM (inactive)

Task: // next record NCCCCCC(CCN)SCC1OC(n2cnc3c(N)ncnc32)C(O)C1O (stereo unspecified)
Result: 764 µM (inactive)

====

The following compounds are listed with their measured GI50 values.
- System: UACC-62
- Test protocol: NCI tumour cell line growth inhibition, 48 h
Calls of active or inactive are those of the source. Cut-off read from the data, not from the text of the source: active = GI50 up to about 1.1 µM and inactive = higher.

compound="CC(=O)N1CN2C(=O)CCC2c2ccccc21 (configuration not stated)" system_under_test=UACC-62 result="> 100 µM (inactive)"

Task: // query GI50 value for entry Cc1ccc(S(=O)(=O)NC(CN)C(=O)O)cc1 (configuration not stated)
Result: > 100 µM (inactive)

Task: // next record Cc1c(C)c(S(=O)(=O)N(CCCN)OCCCN)c(C)c2c1OC(C)(C)C2
Result: 51.4 µM (inactive)

====

- System: DU-145
- Test protocol: NCI tumour cell line growth inhibition, 48 h
Calls of active or inactive are those of the source. Cut-off read from the data, not from the text of the source: active = GI50 up to about 1.1 µM and inactive = higher.
The following molecules are listed with their measured GI50 values.

molecule="FC1C2=C(SC1(F)F)C1CCC2C1 (centres undefined)" result="> 100 µM (inactive)"
molecule="COc1ccc(C(O)CNC(=O)c2ccccc2)cc1 (centres undefined)" result="> 100 µM (inactive)"
molecule="COc1cccc(CC2Cc3ccccc3CC(=O)N2)c1 (centres undefined)" result="> 100 µM (inactive)"
molecule="CC(C)CC(O)P(=O)(O)O.NC1CCCCC1 (centres undefined)" result="> 100 µM (inactive)"

Task: // query GI50 value for entry NC(=S)SCCC(=O)O
Result: > 100 µM (inactive)

Task: // next record CCOC(=O)c1sc2[n+](c1C)C(=O)/C(=C/c1ccc([N+](=O)[O-])cc1)S2
Result: 31.3 µM (inactive)

Task: // next record O=C(OCCN1CCCCC1)C(c1ccccc1)C1(O)CCSCC1 (centres undefined)
Result: > 100 µM (inactive)

Task: // next record CN(C)c1ccc(C2SCC(=O)N2c2ccc(Oc3ccc(Cl)cc3)c(Cl)c2)cc1 (centres undefined)
Result: 16.7 µM (inactive)

Task: // next record O=[N+]([O-])c1nccn1CCCNCCCn1ccnc1[N+](=O)[O-]
Result: > 100 µM (inactive)

Task: // next record COc1nc2c(c(=O)[nH]1)N=C(c1ccc([N+](=O)[O-])cc1)CC(c1ccccc1)N2 (centres undefined)
Result: > 100 µM (inactive)

Task: // next record CCOC(=O)/C(=N\Nc1ccc(-n2c(C)nc3ccc(Br)cc3c2=O)cc1)C(C)=O
Result: > 100 µM (inactive)

Task: // next record O=S(=O)(c1ccc(I)cc1)N(c1ccccc1)S(=O)(=O)C(F)(F)C(F)(F)C(F)(F)C(F)(F)F
Result: 46.7 µM (inactive)

Task: // next record COc1ccc(C)cc1Nc1nnc(-c2ccccc2N)s1
Result: > 100 µM (inactive)

Task: // next record CC[C@@]1(O)C(=O)OCc2c1c(Cl)c1n(c2=O)Cc2cc3ccccc3nc2-1
Result: 1.92 µM (inactive)

====

- Tested on: MOLT-4
- Test protocol: NCI tumour cell line growth inhibition, 48 h
The source made the active and inactive calls. Rule as the data show it: active = GI50 up to about 1.1 µM and inactive = higher.
Lab note: assign the record to one of T = active, F = inactive

Reference set, count: 5
compound=Cc1nc(N)sc1/N=N/c1ccccc1Br group=F
compound=Clc1ncnc(Cl)c1Cl group=F
compound=CN(C)CCNc1ccc(NCC[N+](C)(C)Cc2ccc([N+](=O)[O-])cc2)c2c1C(=O)c1c(O)ccc(O)c1C2=O group=T
compound="O=C(CC1Sc2ccccc2NC1=O)Nc1ccccc1[N+](=O)[O-] (stereo not drawn)" group=F
compound=COc1cc(C(=O)N(Cc2cccnc2)C(=S)N(Cc2cccnc2)C(=O)c2cc(OC)c(OC)c(OC)c2)cc(OC)c1OC group=F

Task: Could you please tell me the result logged for COc1cc(OC)c(C2CC=Cc3c(OC)cc(OC)c(OC)c32)cc1OC (stereo not drawn) in this assay?
Result: F

Task: // next record CCN(CC)Cc1cc(Nc2c3ccccc3nc3c2[nH]c2ccccc23)ccc1O
Result: T

Task: // next record Nc1nc2c(ncn2CCCC(c2ccccc2)P(=O)(O)O)c(=O)[nH]1 (stereo not drawn)
Result: F

Task: // next record CCCC(=O)OCC1OC(n2cc(F)c(=O)[nH]c2=O)C(F)C1OC(=O)CCC (stereo not drawn)
Result: F

Task: // next record C=CCc1cc(-c2cc(CC=C)c(O)c(CNC)c2)cc(CNC)c1O
Result: F

Task: // next record CCCc1nnc2sc(COc3ccc(OCc4nn5c(CCC)nnc5s4)c(Cl)c3)nn12
Result: F

====

- System: SNB-75
- Test protocol: NCI tumour cell line growth inhibition, 48 h
The source made the active and inactive calls. No stated cut-off is given here; in the data, active = GI50 up to about 1.1 µM and inactive = higher.
The following compounds are listed with their measured GI50 values.

# example entries with known answers
compound="N#Cc1ccccc1NC(=O)C(=O)C(C(=O)c1ccncc1)C1OC(=O)c2ccccc21 (centres undefined)" measured_endpoint=GI50 result="> 100 µM (inactive)"
compound="COc1cccc(CC2Cc3ccccc3CC(=O)N2)c1 (centres undefined)" measured_endpoint=GI50 result="> 100 µM (inactive)"

Task: // query GI50 value for entry CCOC(=O)[C@H]1Nc2ccc(O)cc2C2c3ccccc3CC21 (some centres undefined)
Result: 36.9 µM (inactive)

Task: // next record COc1ccc(/C=N/NC(=S)Nc2cc(C)ccc2OC)cc1
Result: > 100 µM (inactive)

====

The following compounds are listed with their measured GI50 values.
- System: Hs-578T
- Test protocol: NCI tumour cell line growth inhibition, 48 h
The source made the active and inactive calls. Rule as the data show it: active = GI50 up to about 1.1 µM and inactive = higher.

# example entries with known answers
compound="COC(=O)N1CC2(CO)C3CC=C(C(=O)Nc4ccccc4Br)C2C1C3Br (configuration not stated)" result="> 50 µM (inactive)"
compound=COc1cccc2c(=O)oc(-c3ccc(C(C)(C)C)cc3)nc12 result="79.3 µM (inactive)"
compound=C=CCN(c1cc(OC)c(NC(C)=O)cc1[N+](=O)[O-])S(C)(=O)=O result="> 100 µM (inactive)"
compound=CC(=O)Oc1ccc(/C=C/C(=O)O[C@@H](C(=O)O)[C@@H](OC(=O)/C=C/c2ccc(OC(C)=O)c(OC(C)=O)c2)C(=O)O)cc1OC(C)=O result="> 100 µM (inactive)"
compound=COc1ccc(-c2cc(-c3ccccc3)c3c(n2)-c2ccccc2NC(=O)C3)cc1 result="5.15 µM (inactive)"
compound=Clc1cc(Cl)nc(Nc2ccc3c(c2)CCC3)n1 result="28.4 µM (inactive)"

Kindly review the next compound as well.
Task: // query GI50 value for entry CCOP(=O)(O)CC1OC(CO)C(O)C1O (configuration not stated)
Result: > 100 µM (inactive)

====

- Tested on: NCI-H226
- Test protocol: NCI tumour cell line growth inhibition, 48 h
Activity calls are given as the source filed them. Cut-off read from the data, not from the text of the source: active = GI50 up to about 1.1 µM and inactive = higher.
Measured endpoint: GI50

# example entries with known answers
molecule=COc1cccc(/C=C/c2cnc3ccccc3n2)c1OC measured_endpoint=GI50 result="37.2 µM (inactive)"
molecule="S=C1Nc2ccccc2SC1c1ccccc1 (stereo not given)" measured_endpoint=GI50 result="28.6 µM (inactive)"
molecule=Cc1cc2c(cc1Cl)Sc1nnc(Nc3ccccc3)n1S2(=O)=O measured_endpoint=GI50 result="3.08 µM (inactive)"
molecule="COc1ccccc1NC(=O)C(=O)C(C(=O)c1ccccc1F)C1OC(=O)c2ccccc21 (stereo not given)" measured_endpoint=GI50 result="15.6 µM (inactive)"

Task: // query GI50 value for entry O=[N+]([O-])c1ccc2c(c1)nc(Cc1ccc(Cl)cc1)n2C[C@@H]1CCCN2CCCCC12 (stereo not given in full)
Result: 16.6 µM (inactive)

====

The following molecules are listed with their measured GI50 values.
- Test system: HCC 2998
- Test protocol: NCI tumour cell line growth inhibition, 48 h
The source made the active and inactive calls. Rule as the data show it: active = GI50 up to about 1.1 µM and inactive = higher. Starred links: 1 amine or outer side, 2 acyl side, 3 side chain; linkers in the order of their positions; H or OH if unused. Positions of bridges follow the written chain, without caps; N, C: chain ends. Non-standard residues stand in square brackets, D forms with d. Residues, ends and D or L forms follow the SMILES beside them. *: point of attachment. X40 = CC[C@H](C)[C@@H](N[*:1])[C@@H](O)CC(=O)[*:2]; NMeY = CN[C@@H](Cc1ccc(O)cc1)C(=O)O; dNMeL = CN[C@H](CC(C)C)C(=O)O; Hiv = CC(C)[C@H](O)C(=O)O; Pyruvoyl = CC(=O)C(=O)*

# example entries with known answers
molecule=C=C(CC[C@@H](C)[C@H]1CC[C@H]2[C@@H]3C[C@@H](O)[C@H]4C[C@@H](O)CC[C@]4(CO)[C@H]3CC[C@]12C)C(C)C result="0.382 µM (active)"
molecule=OCc1c[te]c(-c2ccccc2)c1 result="> 100 µM (inactive)"

Kindly review the next molecule as well.
Task: // query GI50 value for entry CC[C@H](C)[C@H]1NC(=O)[C@@H](NC(=O)[C@@H](CC(C)C)N(C)C(=O)[C@@H]2CCCN2C(=O)C(C)=O)[C@@H](C)OC(=O)[C@H](Cc2ccc(OC)cc2)N(C)C(=O)[C@@H]2CCCN2C(=O)[C@H](CC(C)C)NC(=O)[C@H](C(C)C)OC(=O)C[C@@H]1O (Pyruvoyl-P[dNMeL]T[X40][Hiv]LP[NMeY](Me); ester 3-C)
Result: 0.00261 µM (active)
